In this section we review reported fraction unbound at 4 h, 1 µM values for a set of compounds.
# ASSAY_METHOD_TEXT: Fraction unbound in Han Wistar rat plasma at 1 uM after 4 hrs by LC/MS/MS analysis
# Format: ADME, cell-free

QUERY: I have this compound here, C[C@H]1COc2cc(F)ccc2N1C(=O)c1ccc2c(c1)NC(=O)CO2 , and I need its recorded fraction unbound at 4 h, 1 µM.
RESULT: 0.091

QUERY: Item: COC(=O)[C@@H]1CC2=CC(=O)CC[C@]2(C)[C@@]23O[C@@H]2C[C@@]2(C)[C@@H](CC[C@@]24CCC(=O)O4)[C@H]13 [EPLERENONE]
RESULT: 0.76

QUERY: Item: CNC(=O)C[C@H]1COc2cc(Cl)ccc2N1C(=O)c1ccc2c(c1)NC(=O)CO2
RESULT: 0.4

QUERY: Item: NS(=O)(=O)C[C@H]1COc2cc(F)ccc2N1C(=O)c1ccc2c(c1)NC(=O)CO2
RESULT: 0.42
